Exercise: state measured Mean % WT Binding for each of the binders provided.
Target: human CD33 A265S (human, UniProt P20138 18-364)
Sequence (P20138 18-364 A265S limits assumed): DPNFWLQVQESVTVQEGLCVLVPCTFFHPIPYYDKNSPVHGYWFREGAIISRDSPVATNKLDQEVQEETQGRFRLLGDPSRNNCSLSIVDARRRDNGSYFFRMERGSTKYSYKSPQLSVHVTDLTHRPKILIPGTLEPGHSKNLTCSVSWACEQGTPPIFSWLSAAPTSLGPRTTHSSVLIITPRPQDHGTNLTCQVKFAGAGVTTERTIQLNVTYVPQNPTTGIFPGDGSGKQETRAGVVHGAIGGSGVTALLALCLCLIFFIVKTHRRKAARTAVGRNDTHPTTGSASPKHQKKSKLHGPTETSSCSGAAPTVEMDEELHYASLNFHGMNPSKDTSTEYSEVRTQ
Experiment: alanine scan, flow cytometry, HEK293-T;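 further: antibody binding to each alanine-substituted CD33 mutant expressed transiently in HEK293-T, read as fluorescence minus background, mean of duplicates, relative to wild-type CD33 set as 100%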

Need Mean % WT Binding of Refmab #2 (antibody, V domains shown, The alanine scan used IgG or Fab) VH: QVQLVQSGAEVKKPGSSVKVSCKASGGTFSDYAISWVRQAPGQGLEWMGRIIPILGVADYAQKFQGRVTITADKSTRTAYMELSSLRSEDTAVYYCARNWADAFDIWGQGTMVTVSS VL: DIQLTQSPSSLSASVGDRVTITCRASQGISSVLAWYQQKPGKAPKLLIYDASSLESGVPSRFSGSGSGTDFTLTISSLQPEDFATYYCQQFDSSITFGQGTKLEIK , thanks.
104 % WT binding

Another binder to look at: Refmab #1 (antibody, V domains shown, The alanine scan used IgG or Fab; also called hP67.6) VH: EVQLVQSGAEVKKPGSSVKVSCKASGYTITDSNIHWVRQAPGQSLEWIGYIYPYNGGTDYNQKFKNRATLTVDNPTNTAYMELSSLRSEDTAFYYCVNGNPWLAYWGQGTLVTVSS VL: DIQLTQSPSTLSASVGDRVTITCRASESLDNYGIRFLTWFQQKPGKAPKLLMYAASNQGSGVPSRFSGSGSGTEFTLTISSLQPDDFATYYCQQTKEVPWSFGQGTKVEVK
93.2 % WT binding

Follow-up entry: Refmab #4 (antibody, V domains shown, The alanine scan used IgG or Fab) VH: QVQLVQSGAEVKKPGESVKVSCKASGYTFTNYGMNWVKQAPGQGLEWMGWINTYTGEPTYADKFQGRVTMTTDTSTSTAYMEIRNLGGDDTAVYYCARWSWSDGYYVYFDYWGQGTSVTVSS VL: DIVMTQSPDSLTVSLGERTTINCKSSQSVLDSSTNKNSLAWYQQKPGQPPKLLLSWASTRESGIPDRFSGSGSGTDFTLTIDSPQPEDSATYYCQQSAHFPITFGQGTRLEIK
126 % WT binding
